system: tetracycline efflux pump (strain KB4 or KB5); test: Inhibition Assay, plate assay (agar with 5 ng/ml of tetracycline); assay type: cell-based, E. coli; details: plate assay, 5 ng/ml of tetracycline
Non-standard residues stand in square brackets, D forms with d. Residues, ends and D or L forms follow the SMILES beside them. Orn(N5-OH,N5-Ac) = CC(=O)N(O)CCC[C@H](N)C(=O)O
property label: response in the Inhibition Assay

[
  {
    "compound": "C/C(=C/C(=O)N([O-])CCCC1NC(=O)CNC(=O)C(CO)NC(=O)C(CO)NC(=O)C(CCCN([O-])C(=O)/C=C(/C)CC(=O)O)NC(=O)C(CCCN([O-])C(=O)/C=C(\\C)CC(=O)O)NC1=O)CC(=O)O.[Fe+3] (stereo not shown)",
    "result": "test positive"
  },
  {
    "compound": "CC(=O)N([O-])CCC[C@@H]1NC(=O)CNC(=O)CNC(=O)CNC(=O)[C@H](CCCN([O-])C(C)=O)NC(=O)[C@H](CCCN([O-])C(C)=O)NC1=O.[Fe+3] [ferrichrome] (cyclo(GGG[Orn(N5-OH,N5-Ac)][Orn(N5-OH,N5-Ac)][Orn(N5-OH,N5-Ac)]))",
    "result": "test positive"
  }
]
